assay_procedure: Pharmacokinetics in SD rats
Type: in vivo
conditions_used: both sexes, rat, plasma, po; SD rats, 10 mg/kg
quantity: half-life
Answer by giving the amount and then stating its unit.

-- ask Entry under review: Cc1c(C(=O)Nc2ccc(Oc3ccnc(Nc4cccc(OC5CCN(C)CC5)c4)n3)cc2)c(=O)n(-c2ccccc2)n1C [compound 17c] . Reported half-life?
-- reply 3.46 h
